biological target: T1, ROR1 on stably transgenic ROR1-expressing cells MDA-MB-231-ROR1 (UniProt Q01973 30-937, limits assumed); assay: flow cytometry on MDA-MB-231-ROR1 cells
T1 construct: whole, on cells
T1 sequence (Q01973 30-937 limits assumed): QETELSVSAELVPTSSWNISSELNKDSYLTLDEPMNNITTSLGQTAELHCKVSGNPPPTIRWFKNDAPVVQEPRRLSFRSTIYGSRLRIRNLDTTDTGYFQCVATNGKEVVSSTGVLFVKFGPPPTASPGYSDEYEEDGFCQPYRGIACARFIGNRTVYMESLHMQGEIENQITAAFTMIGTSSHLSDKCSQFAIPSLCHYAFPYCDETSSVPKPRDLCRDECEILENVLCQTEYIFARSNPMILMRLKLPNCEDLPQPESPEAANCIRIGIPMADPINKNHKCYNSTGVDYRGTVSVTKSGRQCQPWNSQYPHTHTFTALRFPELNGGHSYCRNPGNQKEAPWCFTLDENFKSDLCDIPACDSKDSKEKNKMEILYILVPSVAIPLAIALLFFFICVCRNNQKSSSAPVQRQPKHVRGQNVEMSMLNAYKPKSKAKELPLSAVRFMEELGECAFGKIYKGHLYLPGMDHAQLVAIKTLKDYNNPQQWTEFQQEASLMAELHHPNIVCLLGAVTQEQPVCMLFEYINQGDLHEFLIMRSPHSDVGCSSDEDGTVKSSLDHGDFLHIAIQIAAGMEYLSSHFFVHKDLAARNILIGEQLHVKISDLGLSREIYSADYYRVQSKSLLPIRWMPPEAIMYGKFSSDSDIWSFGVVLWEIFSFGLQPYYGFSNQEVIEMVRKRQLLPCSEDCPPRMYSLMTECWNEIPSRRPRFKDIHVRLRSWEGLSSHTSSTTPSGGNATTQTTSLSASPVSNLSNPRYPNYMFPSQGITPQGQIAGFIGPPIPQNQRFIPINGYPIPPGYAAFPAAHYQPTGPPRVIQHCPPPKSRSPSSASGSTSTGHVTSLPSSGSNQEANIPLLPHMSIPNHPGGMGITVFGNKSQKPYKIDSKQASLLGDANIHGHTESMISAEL
REPORTED_PROPERTY: EC50 (µg/mL)
# output: bare number, implied unit µg/mL

Input line: Any idea what its EC50 is? The binder is murine antibody 17-F12-G8-A6 (antibody, V domains shown) VH: EVTLKESGPGILQPSQTLSLTCSFSGFSLSTSGMGVAWIRQPSGKGLEWLAHIWWDDDKRYNPALKSRLTISKDTSSNQVFLKIASVDTADTATYYCARPQFITTVVAFYWYFDVWGAGTTVTVSS VL: DILLTQSPASLSVSMGETVTITCRASENIYSNLAWYQQKQGKSPQLLVYAATNLADGVPSRFSGSGSGTQYSLKINSLQSEDFGSYYCQHFWGTPWTFGGGTKLEIK
Output line: 0.0988
